target: IL16_2, Q14005; test: holdup assay; design: key: below the threshold = too weak to quantify, mostly under pKd 3.1 to 4; conditions: plain residues with an end cap or a label only (N-terminal biotin on a linker: ttds)
Sequence (Q14005 350-450): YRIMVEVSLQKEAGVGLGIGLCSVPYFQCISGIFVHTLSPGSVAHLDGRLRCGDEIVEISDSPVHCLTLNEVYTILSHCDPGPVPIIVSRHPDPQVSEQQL
readout.label: pKd

binder	reported.measurement
SVWLRKETRV [CYSLTR2, Q9NS75]	below the threshold
SSRTRRETQL [HPV16-E6, P03126]	below the threshold
STLTIFETAL [ABCC4, O15439]	below the threshold
QSARYRDTEL [TJP2, Q9UDY2]	below the threshold
PKTPPTDTSV [KIR3DL3, Q8N743]	below the threshold
RSLEEEESQL [GRASP, Q7Z6J2]	below the threshold
SRPQRTQTQV [HPV67-E6, A4U7F2]	4.25
